# target or system: human CD38 on cells (human, UniProt P28907 1-300)
# test details: cell-based or functional assay
quantity kind: CDC, specific viability of Daudi cells at 1.25 µg/mL or higher with complement (%)
# number only, unit % dropped from output

Worked examples follow.
binder	reported measurement
ch38SB39 chimeric anti-CD38 antibody (antibody, V domains shown) VH: NVQLVESGGGLVQPGGSRKLSCAASGFTFSNFGMHWVRQAPEKGLEWVAYIRSGSGTIYYSDTVKGRFTISRDNPKNTLFLQMTSLRSEDTAMYYCARSYYDFGAWFAYWGQGTLVTVSA VL: DIVMTQSQKFMSTSVGDRVSVTCKASQNVGTNVAWYQHKPGQSPKIMIYSASSRYSGVPDRFTGSGSGTLFTLTINNVQSEDLAEYFCQQYNSYPLTFGSGTKLEIKR	91
ch38SB18 chimeric anti-CD38 antibody (antibody, V domains shown) VH: QIQLVQSGPELKKPGETVKISCKASGYTFTNSGMNWVKQAPGKGLKWMGWINTYTGEPTYADDFKGRFAFSLETSASSAYLQISNLKNEDTATYFCARRGFVYWGQGTLVTVSA VL: DIVLTQSPASLAVSLGQRATISCRASESVAIYGNSFLKWFQQKPGQPPKLLIYRASNLESGIPARFSGSGSGTDFTLTINPVEADDVATYYCQQINEDPYTFGGGTKLEIKR	85
ch38SB30 chimeric anti-CD38 antibody (antibody, V domains shown) VH: QVQLQQSGPELVRPGASVKISCKTSGYAFSGSWMNWVKQRPGQGLEWIGRIYPGDGDIIYNGNFRDKVTLSADKSSNTAYMQLSSLTSVDSAVYFCSRWGTFTPSFDYWGQGTTLTVSS VL: DIVMTQSHKFLSTSVGDRVSITCKASQDVVTAVAWFQQKPGQSPKLLIYSASHRYTGVPDRFTGSGSGTDFTFTIISVQAEDLAVYYCQQHYTTPTTFGGGTKLDFRR	45

Could you now look at the following binder, please?
Asked: Note CDC, specific viability of Daudi cells at 1.25 µg/mL or higher with complement for the binder shown: ch38SB13 chimeric anti-CD38 antibody (antibody, V domains shown) VH: QIQLVQSGPELKKPGETVKISCKASGYTLTSYGMNWVKQAPGKGLKWMGWINTYTGEPTYADDFKGRFAFSLETSASTAFLQINNLKNEDTATYFCVRRGFAYWGQGTLVTVSA VL: NIVLTQSPASLAVSLGQRATISCRASESVEIYGNGFMNWFQQKPGQPPKLLIYRASNLESGIPARFSGSGSRTEFTLTIDPVEADDVATYYCQQINEDPFTFGSGTKLEIKR
Given back: 65

Reference source for all entries: patent US20110262454A1
